Data provenance: ChEMBL document CHEMBL3351303

Experiment: Plasma concentration in C57BL/6 mouse at 0.1 mg/kg, po administered as single dose 30 mins before orally glucose challenge and measured 20 mins post oral glucose challenge
Assay type: ADME, organism-based
Design: dose 0.1 mg/kg, route oral

{"columns": ["structure", "concentration at 20 min"],
 "data": [
  ["Cc1cc(N2CCC[C@@H](N)C2)c2c(n1)n(C)c(=O)n2Cc1ccccc1C#N", "3.9 ng/mL"]
]}

---

Assay: Half life in rat at 4 mg/kg, po
Format: ADME, organism-based
Parameters: dose 4 mg/kg, route oral
Settings: in vivo
measured metric: half-life (h)

{"columns": ["structure", "unit of measurement", "reported result"],
 "data": [
  ["Cn1c(=O)n(Cc2ccccc2C#N)c2c(N3CCC[C@@H](N)C3)cc(C(F)(F)F)nc21", "h", 4.4],
  ["Cn1c(=O)n(Cc2ccccc2C#N)c2c(N3CCC[C@@H](N)C3)cc(CO)nc21", "h", 1.9]
]}

---

Assay: Half life in rat at 10 mg/kg, po
Format: ADME, organism-based
Set-up: dose 10 mg/kg, route oral
Conditions: in vivo
met if half-life is below 2 h. not met if not; exact matches included in not met.

{"columns": ["structure", "cat"],
 "data": [
  ["Cn1c(=O)n(Cc2ccccc2C#N)c2c(N3CCC[C@@H](N)C3)ccnc21", "not met"],
  ["Cc1cc(N2CCC[C@@H](N)C2)c2c(n1)n(C)c(=O)n2Cc1ccccc1C#N", "not met"],
  ["Cn1c(=O)n(Cc2ccccc2C#N)c2c(N3CCC[C@@H](N)C3)cc(C(N)=O)nc21", "not met"],
  ["Cn1c(=O)n(Cc2ccccc2C#N)c2c(N3CCC[C@@H](N)C3)cccc21", "not met"],
  ["Cn1c(=O)n(Cc2ccccc2C#N)c2c(N3CC[C@@H](N)C3)ccnc21", "met"]
]}

---

Assay: Half life in rat at 2 mg/kg, iv
Type: ADME, organism-based
Design: dose 2 mg/kg, route intravenous
Settings: in vivo

{"columns": ["structure", "half-life (h)"],
 "data": [
  ["Cn1c(=O)n(Cc2ccccc2C#N)c2c(N3CCC[C@@H](N)C3)cc(C(F)(F)F)nc21", 4.72],
  ["Cn1c(=O)n(Cc2ccccc2C#N)c2c(N3CCC[C@@H](N)C3)cc(CO)nc21", 2.48]
]}

---

Test: Solubility in pH 1.2 solution
Format: physicochemical
measured metric: solubility

{"columns": ["structure", "measured metric", "reported result"],
 "data": [
  ["Cc1cc(N2CCC[C@@H](N)C2)c2c(n1)n(C)c(=O)n2Cc1ccccc1C#N", "solubility", "560 mg/mL"]
]}

---

Test: Volume of distribution at steady state in monkey at 5 mg/kg, iv
Assay type: ADME, organism-based, Macaca mulatta
Set-up: dose 5 mg/kg, route intravenous
Conditions: rhesus monkey, in vivo, read-out: Vdss

{"columns": ["structure", "Vd, L/kg"],
 "data": [
  ["Cc1cc(N2CCC[C@@H](N)C2)c2c(n1)n(C)c(=O)n2Cc1ccccc1C#N", 2.44]
]}

---

Assay: Plasma concentration in C57BL/6 mouse at 1 mg/kg, po administered as single dose 30 mins before orally glucose challenge and measured 20 mins post oral glucose challenge
Format: ADME, organism-based
Design: dose 1 mg/kg, route oral

{"columns": ["structure", "concentration at 50 min / ng/mL"],
 "data": [
  ["Cc1cc(N2CCC[C@@H](N)C2)c2c(n1)n(C)c(=O)n2Cc1ccccc1C#N", 36.1]
]}

---

Experiment: Plasma concentration in C57BL/6 mouse at 0.3 mg/kg, po administered as single dose 30 mins before orally glucose challenge and measured 20 mins post oral glucose challenge
Format: ADME, organism-based
Set-up: dose 0.3 mg/kg, route oral
measured metric: concentration at 20 min (ng/mL)

{"columns": ["structure", "reported result"],
 "data": [
  ["Cc1cc(N2CCC[C@@H](N)C2)c2c(n1)n(C)c(=O)n2Cc1ccccc1C#N", 10.3]
]}

---

Assay: Half life in dog at 5 mg/kg, po
Assay type: ADME, organism-based, Canis lupus familiaris
Design: dose 5 mg/kg, route oral
Settings: in vivo

{"columns": ["structure", "half-life"],
 "data": [
  ["Cc1cc(N2CCC[C@@H](N)C2)c2c(n1)n(C)c(=O)n2Cc1ccccc1C#N", "1.3 h"]
]}

---

Assay: AUClast in dog at 5 mg/kg, po
Format: ADME, organism-based, Canis lupus familiaris
Set-up: time 0 - last, dose 5 mg/kg, route oral
Settings: plasma
measured metric: AUC(0-t) (ng·h/mL)

{"columns": ["structure", "measured metric", "reported result"],
 "data": [
  ["Cc1cc(N2CCC[C@@H](N)C2)c2c(n1)n(C)c(=O)n2Cc1ccccc1C#N", "AUC(0-t)", 3630]
]}

---

Assay: AUClast in rat at 4 mg/kg, po
Type: ADME, organism-based
Set-up: time 0 - last, dose 4 mg/kg, route oral
Settings: plasma

{"columns": ["structure", "unit of measurement", "AUC(0-t)"],
 "data": [
  ["Cn1c(=O)n(Cc2ccccc2C#N)c2c(N3CCC[C@@H](N)C3)cc(CO)nc21", "ng·h/mL", 19.5],
  ["Cn1c(=O)n(Cc2ccccc2C#N)c2c(N3CCC[C@@H](N)C3)cc(C(F)(F)F)nc21", "ng·h/mL", 1610]
]}
